tested on: SF-295 CNS; assay: NCI tumour cell line growth inhibition, 48 h; in the data active = GI50 below about 0.43 µM; inactive = the rest
Return exactly one item of 1 for active, -1 for inactive

These solved cases illustrate the format of a correct answer.
INSERT INTO results (compound, answer_label) VALUES
  ('O=C(O)/C=C(\c1nc2ccc([N+](=O)[O-])cc2[nH]1)c1cc(Cl)ccc1O', -1),
  ('C#CCNC(=O)c1cccc2c1cc(C)n2-c1nc2c(c(NCc3ccccc3)n1)CCCC2', 1);

Hi team, can someone confirm the assay call for CCOC1Oc2ccc(C)cc2C(=O)/C1=C\Nc1ccc(C(N)=O)cc1 (centres undefined) ? -1

Recorded call for CCCC(=O)OCC1OC(n2cnc3c(=S)nc[nH]c32)C(OC(=O)CCC)C1OC(=O)CCC (centres undefined) ? -1

----------
Measured TGI of individual entries
test system: SF-539 CNS; assay: NCI tumour cell line growth inhibition, 48 h

Here is how some compounds turned out for TGI.
INSERT INTO assay_data (compound, recorded_value) VALUES
  ('O=C(O)CCNC1CCCCC1', '> 100 µM'),
  ('O=c1[nH]nc(-c2ccccc2)n1-c1ccncc1', '> 100 µM'),
  ('Cc1ccc2c(c1)Sc1c(ccc3ccccc13)N2', '> 100 µM'),
  ('O=C(CC1(O)C(=O)Nc2ccccc21)c1ccncc1 (stereo unspecified)', '> 100 µM'),
  ('Cc1ccc(C(=O)NC(C)C)cc1-c1ccc(C(=O)NCC2CC2)cc1', '> 25 µM'),
  ('CCOC(=O)NC(=O)c1cn(CCNCCO)c(=O)[nH]c1=O', '> 100 µM'),
  ('N#Cc1c(=O)n(-c2ccccc2)c(O)c2c(N)n[nH]c12', '> 100 µM'),
  ('COC(=O)C1=C(O)C(C(=O)OC)[C@]2(O)[C@H](C(=O)OC)[C@H]1C[C@@H](c1ccc(Cl)cc1)[C@H]2C(=O)OC (stereo partly specified)', '20.9 µM'),
  ('Cc1ccc(S(=O)(=O)c2ccsc2NC(=O)C(F)(F)F)cc1', '> 100 µM'),
  ('COc1cc(/C=N\N(C)C)cc(/C=N/N(C)C)c1O', '37.1 µM');

// next entry
Report value: TGI, system: SF-539 CNS, compound: CCCCCCCCn1ccc2cc(NC(=O)Cn3cc(CN4CCCC4)nn3)ccc21 3.19 µM

----------
tested on: COLO 205 colon; assay: NCI tumour cell line growth inhibition, 48 h
Form field: GI50 (one value per entry).

Record excerpt, results attached:
INSERT INTO assay_data (compound, assayed_target, observed_property, recorded_value) VALUES
  ('O=C(Nc1ccncc1)C(=O)c1cn(S(=O)(=O)c2cccc(F)c2)c2ccccc12', 'COLO 205 colon', 'GI50', '32.4 µM'),
  ('Cc1ccc(C(=O)N(CCCN)C(c2oc3cc(Cl)ccc3c(=O)c2Cc2ccccc2)C(C)C)cc1 (stereo not given)', 'COLO 205 colon', 'GI50', '< 0.01 µM'),
  ('O=c1cc(-c2ccccc2)oc2cc(OC/C(=N/O)c3ccccc3)ccc12', 'COLO 205 colon', 'GI50', '> 50 µM'),
  ('OCCCNc1nc(=S)[nH]c2[nH]ncc12', 'COLO 205 colon', 'GI50', '29.3 µM'),
  ('CCCCCCCCn1ccc2cc(NC(=O)Cn3cc(CN4CCCC4)nn3)ccc21', 'COLO 205 colon', 'GI50', '1.99 µM');

# return recorded GI50 for input O=C(O)CCNC1CCCCC1 > 100 µM

Identify the reported GI50 for the following entry. O=S(=O)(NC1=NCCN1C(=S)SN1CCn2c1nsc2=S)c1cccc(Cl)c1 7.48 µM

Tell me its GI50 given COc1cc2cc(Oc3ccc(NC(=O)Nc4ccc(Cl)c(C(F)(F)F)c4)cc3)c(C)nc2cc1OCCN1CCOCC1 as the entry. 1.63 µM

Please give the documented GI50 of CC[C@@]1(c2ccccc2)C2=C(CC(C)(C)CC2=O)Nc2[nH]ncc21 > 100 µM

Report GI50, nothing else, for this compound: CC/C=C\C[C@H](F)C/C=C1/C(=O)C=C[C@@H]1C/C=C\CCCC(=O)O 5.3 µM

----------
system: SF-539 CNS; assay: NCI tumour cell line growth inhibition, 48 h
Let's look at some molecules and their measured TGI.

Report TGI for c1ccc(-c2cn3c(nc4ccccc43)c(-c3ccccc3)n2)cc1 > 100 µM

----------
Known TGI of a selection of compounds
system: SN12C renal; assay: NCI tumour cell line growth inhibition, 48 h

Solved entries (count: 3):
INSERT INTO measurements (compound, recorded_value) VALUES
  ('CC1CN1C(=O)NCCCCCCNC(=O)N1CC1C (stereo not drawn)', '> 100 µM'),
  ('COc1ccc(NC(=O)CC(=O)N/N=C/c2ccc(N(CCC#N)S(C)(=O)=O)cc2)cc1', '> 100 µM'),
  ('Cc1ccc2c(c1)Sc1c(ccc3ccccc13)N2', '> 100 µM');

Find the measured TGI of CN(C)c1ccc(/C=C2/NC(=S)NC2=O)cc1 and report it. > 100 µM

Report TGI, nothing else, for this compound: O=C(O)C(CS)Nc1c2ccccc2nc2ccccc12 (stereo not drawn) > 100 µM

Indicate the recorded TGI value for this compound: COc1ccc2c(c1)-c1nc(=S)n(CCCN(C)C)c3ccc([N+](=O)[O-])c(c13)N2 10.3 µM

Using the record for c1ccc(CCCCNCc2cc(CNCCCCc3ccccc3)cc(CNCCCCc3ccccc3)c2)cc1 , state its measured TGI. 23.5 µM

For the compound Cc1cc(N(CCC#N)CCC#N)ccc1/C=C1\N=C(c2cc([N+](=O)[O-])ccc2Cl)N(c2cccc(Cl)c2)C1=O , give its reported TGI. > 100 µM

----------
Recorded TGI values for a group of compounds are listed next.
test system: SF-295 CNS; test: NCI tumour cell line growth inhibition, 48 h

INSERT INTO results (compound, assayed_target, recorded_value) VALUES
  ('CCOC(=O)c1c(NC(=O)c2cccs2)sc2c1CCC2', 'SF-295 CNS', '> 100 µM'),
  ('Nc1c(-c2ccc(Cl)cc2)[n+]([O-])c2ccccc2[n+]1[O-]', 'SF-295 CNS', '> 100 µM');

Name the recorded TGI of the compound listed here: CCN(CC)C(c1ccc(N(C)C)cc1)C(c1ccc(N(C)C)cc1)N(CC)CC (stereo unspecified) > 73 µM

Please give measured TGI of the following entry: c1nc(N2CC2)c2cnn(C3CCCCO3)c2n1 (stereo unspecified) > 100 µM

Give the value of TGI reported for the following: Nc1nccc(-c2c(-c3ccc(F)cc3)ncn2C2CCC(O)CC2)n1 (stereo unspecified) > 25 µM

Give TGI for O=C1NC(=O)C(CCC(=O)c2ccc3ccccc3c2)C(=O)N1 > 100 µM

----------
test system: UACC-257 melanoma; assay: NCI tumour cell line growth inhibition, 48 h
observed.property: TGI (µM)
Entry rule: numbers only, all in µM.

INSERT INTO results (smiles_input, assayed_target, observed_property, value_units, recorded_value) VALUES
  ('CCCCCCCC[C@@H](O)CC(=O)N[C@@H](CC(N)=O)C(=O)N[C@@H](CCC(N)=O)C(=O)N[C@@H](CC(=O)c1cc(C)cc(O)c1C(=O)c1c(O)cccc1O)CC(C)C', 'UACC-257 melanoma', 'TGI', 'µM', 4.68);

# evaluate next
Annotate the compound Cn1c2ccccc2c2ccc3c(c21)C(=O)c1ccccc1C3=O with its measured TGI. 67.5

----------
test system: KM12 colon; test: NCI tumour cell line growth inhibition, 48 h
observed.property: TGI (µM)
Numeric answer only, unit µM assumed.

// solved cases for TGI follow
INSERT INTO results (molecule, observed_property, value_units, recorded_value) VALUES
  ('COc1ccc2c(c1)CCCN2c1c2ccccc2nc2ccccc12', 'TGI', 'µM', 15.6),
  ('O=c1oc2ccccc2cc1-c1csc(Nc2ccc(F)cc2)n1', 'TGI', 'µM', 18.4);

In the following, a different molecule is considered.
In one line, give reported TGI of the entry Cc1ccc(C(=O)N(CCCN)C(c2oc3cc(Cl)ccc3c(=O)c2Cc2ccccc2)C(C)C)cc1 (stereo not given) . 1.47

----------
tested on: RXF 393 renal; assay: NCI tumour cell line growth inhibition, 48 h
Reported TGI values for the following compounds.

// below: answered compounds
INSERT INTO measurements (compound, observed_property, recorded_value) VALUES
  ('CC(CCC(=O)O)(c1ccc(O)cc1)c1ccc(O)cc1', 'TGI', '> 100 µM'),
  ('CCCCCCCC(=O)OCC/C=C/C1OC1C1OC(=O)/C=C\C=C\c2nc(oc2C)/C=C(/C)CCC2OC2C1OC(=O)NC(C)=O (centres undefined)', 'TGI', '0.0562 µM'),
  ('COc1cc(Nc2nc3ccccc3nc2-c2cccs2)cc(OC)c1OC', 'TGI', '> 100 µM'),
  ('Clc1ccccc1-c1nc2ccc(C34CC5CC(CC(C5)C3)C4)cc2[nH]1', 'TGI', '20.8 µM'),
  ('CCN(CC)C(c1ccc(N(C)C)cc1)C(c1ccc(N(C)C)cc1)N(CC)CC (centres undefined)', 'TGI', '> 73 µM');

State TGI on RXF 393 renal. Entry: CCCn1c(=S)sc2c1nc(C)n1c(Nc3ccccc3)nnc21 > 100 µM

Report TGI under test system RXF 393 renal for CC(C)(C)C(=O)OCOP(=O)(OCOC(=O)C(C)(C)C)OCC1OC(n2ccc(=O)[nH]c2=O)C(N=[N+]=[N-])C1O (centres undefined) . 7.07 µM

With RXF 393 renal as the test system, provide measured TGI for this compound: COc1ccc(N2C(=O)/C(=C/c3ccc(N(CCC#N)CCC#N)cc3C)N=C2c2cc([N+](=O)[O-])ccc2Cl)cc1 > 46.4 µM

Please report the measured TGI for O=C(CC1C(=O)NN(c2ccc(Br)cc2)C1=O)c1cc(O)ccc1O (centres undefined) tested on RXF 393 renal. > 50 µM
